Biological target: UniProt P01116
Sequence (P01116 whole entry): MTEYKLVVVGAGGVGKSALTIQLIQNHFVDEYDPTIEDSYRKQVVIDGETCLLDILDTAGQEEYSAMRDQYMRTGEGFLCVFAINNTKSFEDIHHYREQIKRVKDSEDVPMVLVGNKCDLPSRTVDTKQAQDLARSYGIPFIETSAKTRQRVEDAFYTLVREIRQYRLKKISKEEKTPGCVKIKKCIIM
Assay: Binding to KRAS by surface plasmon resonance (SPR), Single Cycle Kinetics
Conditions: SPR Single Cycle Kinetics, GDP-bound KRAS wild-type protein, 1:1 binding model; read-out: KRAS KD
*1 amine or outer side, *2 acyl side, *3 side chain or, on linkers, in order; H or OH if unused. Where a SMILES comes first, the peptide text is derived from it. Bridges are numbered along the chain shown (N, C = ends). [ ]: non-standard residue; d: D form. The star is where a group is joined. hPhe(3-Cl-4-CF3) = N[C@@H](CCc1ccc(C(F)(F)F)c(Cl)c1)C(=O)O; NPrPhe(4-CF3) = CCCN[C@@H](Cc1ccc(C(F)(F)F)cc1)C(=O)O; X10 = C=CCN([C@@H](Cc1ccc(C)cc1)C(=O)[*:2])[*:1]; NMeGly(cPent) = CN[C@H](C(=O)O)C1CCCC1; Pro(4,4-F2) = O=C(O)[C@@H]1CC(F)(F)CN1; Hyp = O=C(O)[C@@H]1C[C@@H](O)CN1; NMeD = CN[C@@H](CC(=O)O)C(=O)O; NMeL = CN[C@@H](CC(C)C)C(=O)O; Morpholide = C1CN(*)CCO1; NMeA = CN[C@@H](C)C(=O)O; Ac5c = NC1(C(=O)O)CCCC1; Aze = O=C(O)[C@@H]1CCN1; Ac3c = NC1(C(=O)O)CC1; Sar = CNCC(=O)O
quantity.name: pKd
Value format note: pKd is -log10 of concentration (mol/L); just state the number.

// query Find the recorded pKd belonging to "CC[C@H](C)[C@@H]1NC(=O)[C@H](CC(C)C)N(C)C(=O)C[C@@H](C(=O)N2CCOCC2)N(C)C(=O)[C@H](C2CCCC2)N(C)C(=O)C2(CCCC2)NC(=O)[C@@H]2CC(=O)CN2C(=O)[C@H](CCc2cc(F)c(C(F)(F)F)c(F)c2)NC(=O)CN(C)C(=O)[C@H](Cc2ccc(C(F)(F)F)cc2)N2CCCC[C@@H](C2=O)N(C)C(=O)CN(C)C1=O" and report it.
// result 10.18

// query Need pKd, item "CCO[C@@H]1C[C@H]2C(=O)NC3(CCC3)C(=O)N(C)[C@@H](C3CCCC3)C(=O)N(C)[C@H](C(=O)N(C)C)CC(=O)N(C)[C@@H](CC3CCCC3)C(=O)N[C@@H]([C@@H](C)CC)C(=O)N(C)CC(=O)N(C)[C@H]3C/C=C\CCN(C3=O)[C@@H](Cc3ccc(C(F)(F)F)cc3)C(=O)N(C)CC(=O)N[C@@H](CCc3ccc(C(F)(F)F)c(Cl)c3)C(=O)N2C1"
// result 10.10

// query Reported pKd, compound "CC[C@H](C)[C@@H]1NC(=O)[C@H](CC(C)C)N(C)C(=O)C[C@@H](C(=O)N2CCOCC2)N(C)C(=O)[C@H](C2CCCC2)N(C)C(=O)C2(CCCC2)NC(=O)[C@@H]2CCCN2C(=O)[C@H](CCc2ccc(C(F)(F)F)c(Cl)c2)NC(=O)CN(C)C(=O)[C@H](Cc2ccc(Cl)cc2)N2CC=CC[C@@H](C2=O)N(C)C(=O)CN(C)C1=O" : ____
// result 9.77

// query Name the reported pKd value associated with the compound CCCN1C(=O)CN(C)C(=O)CN(C)C(=O)[C@H]([C@@H](C)CC)NC(=O)[C@H](CC(C)C)N(C)C(=O)C[C@@H](C(=O)N(C)C)NC(=O)[C@H](C2CCCC2)N(C)C(=O)C2(CCCC2)NC(=O)[C@@H]2C[C@@H](OCC)CN2C(=O)[C@H](CCc2ccc(C(F)(F)F)c(Cl)c2)NC(=O)CN(C)C(=O)[C@@H]1Cc1ccc(C(F)(F)F)cc1 [PP0359] ([NMeL]I[Sar][Sar][NPrPhe(4-CF3)][Sar][hPhe(3-Cl-4-CF3)][Hyp](Et)[Ac5c][NMeGly(cPent)]D-NMe2; lactam N-11)
// result 9.85

// query Given "CCC[C@H]1C(=O)N[C@@H]([C@@H](C)CC)C(=O)N(C2CC2)CC(=O)N(C)[C@H]2C/C=C\CCN(C2=O)[C@@H](CC2CCC(F)(F)CC2)C(=O)N(C)CC(=O)N[C@@H](CCc2cc(F)c(C(F)(F)F)c(F)c2)C(=O)N2C[C@H](OCC)C[C@H]2C(=O)NC2(CC(C)(C)C2)C(=O)N(C)[C@@H](C2CCCC2)C(=O)N(C)[C@H](C(=O)N(C)C)CC(=O)N1C" , state its recorded pKd.
// result 9.24

// query # lookup: pKd of CCCN1C(=O)CN(C)C(=O)[C@@H]2CCN2C(=O)[C@H]([C@@H](C)CC)NC(=O)[C@H](CC(C)C)N(C)C(=O)C[C@@H](C(=O)N2CCOCC2)N(C)C(=O)[C@H](C2CCCC2)N(C)C(=O)C2(CCCC2)NC(=O)[C@@H]2CC(F)(F)CN2C(=O)[C@H](CCc2ccc(C(F)(F)F)c(Cl)c2)NC(=O)CN(C)C(=O)[C@@H]1Cc1ccc(C(F)(F)F)cc1 [PP0403] ([NMeL]I[Aze][Sar][NPrPhe(4-CF3)][Sar][hPhe(3-Cl-4-CF3)][Pro(4,4-F2)][Ac5c][NMeGly(cPent)][NMeD]-Morpholide; lactam N-11)
// result 9.08

// query Look up pKd: C=CCN1C(=O)[C@@H]2CCN2C(=O)[C@H](C)N(C)C(=O)[C@H]([C@@H](C)CC)NC(=O)[C@H](CC(C)C)N(C)C(=O)C[C@@H](C(=O)N2CCOCC2)N(C)C(=O)[C@H](C2CCCC2)N(C)C(=O)C2(CCCC2)NC(=O)[C@@H]2CCCN2C(=O)[C@H](CCc2ccc(C(F)(F)F)c(Cl)c2)NC(=O)CN(C)C(=O)[C@@H]1Cc1ccc(C)cc1 [PP0088] ([NMeL]I[NMeA][Aze][X10][Sar][hPhe(3-Cl-4-CF3)]P[Ac5c][NMeGly(cPent)][NMeD]-Morpholide; lactam N-11)
// result 9.92

// query GET /values?readout=pKd&item= "CCO[C@@H]1C[C@H]2C(=O)NC3(CCC3)C(=O)N(C)[C@@H](C3CCCC3)C(=O)N(C)[C@H](C(=O)N(C)C)CC(=O)N(C)[C@@H](CC(C)C)C(=O)N[C@@H]([C@@H](C)CC)C(=O)N(C)CC(=O)N(C)[C@H]3CCCCN(C3=O)[C@@H](Cc3ccc(C(F)(F)F)cc3)C(=O)N(C)CC(=O)N[C@@H](CCc3cc(F)c(C(F)(F)F)c(F)c3)C(=O)N2C1"
// result 10.82

// query Can you share its pKd? I mean this compound: "CCO[C@@H]1C[C@H]2C(=O)NC3(CCC3)C(=O)N(C)[C@@H](C3CCCC3)C(=O)N(C)[C@H](C(=O)N(C)C)CC(=O)N(C)[C@@H](CC3CCCC3)C(=O)N[C@@H]([C@@H](C)CC)C(=O)N(C)CC(=O)N(C)[C@H]3C/C=C\CCN(C3=O)[C@@H](Cc3ccc(C)cc3)C(=O)N(C)CC(=O)N[C@@H](CCc3cc(C)c(C(F)F)c(F)c3)C(=O)N2C1"
// result 9.06

// query For CCCN1C(=O)[C@@H]2CCN2C(=O)C2(CC2)NC(=O)[C@H]([C@@H](C)CC)NC(=O)[C@H](CC(C)C)N(C)C(=O)C[C@@H](C(=O)N2CCOCC2)N(C)C(=O)[C@H](C2CCCC2)N(C)C(=O)C2(CCCC2)NC(=O)[C@@H]2CCCN2C(=O)[C@H](CCc2ccc(C(F)(F)F)c(Cl)c2)NC(=O)CN(C)C(=O)[C@@H]1Cc1ccc(C(F)(F)F)cc1 [PP0276] ([NMeL]I[Ac3c][Aze][NPrPhe(4-CF3)][Sar][hPhe(3-Cl-4-CF3)]P[Ac5c][NMeGly(cPent)][NMeD]-Morpholide; lactam N-11) , what is its reported pKd?
// result 6.82
